protocol_text: Cmax in Sprague-Dawley rat at 5 mg/kg, po measured upto 24 hrs by LC-MS/MS analysis
Assay type: ADME, organism-based
Design: route oral, dose 5 mg/kg, time <=24
measurement_parameters: in vivo
measure_name: Cmax (µM)

INSERT INTO assay_data (query_smiles, measure_name, measure_unit, reported_value) VALUES
  ('CCOP(=O)(Cn1ccc(NC(=O)c2cc(Oc3cnc(C(=O)N4CCC4)cn3)cc(OC(C)C)c2)n1)OCC', 'Cmax', 'µM', 13);

* * *

protocol_text: Volume of distribution at steady state in cynomolgus monkey at 3 mg/kg, iv measured upto 24 hrs
Type: ADME, organism-based, Macaca fascicularis
measurement_parameters: in vivo, read-out: Vdss
measure_name: Vd (L/kg)

INSERT INTO measurements (query_smiles, measure_unit, reported_value) VALUES
  ('CCOP(=O)(Cn1ccc(NC(=O)c2cc(Oc3cnc(C(=O)N4CCC4)cn3)cc(OC(C)C)c2)n1)OCC', 'L/kg', 1.1);

* * *

protocol_text: Systemic plasma clearance in cynomolgus monkey at 3 mg/kg, iv measured upto 24 hrs
Type: ADME, organism-based, Macaca fascicularis
measure_name: clearance

INSERT INTO assay_data (query_smiles, measure_name, reported_value) VALUES
  ('CCOP(=O)(Cn1ccc(NC(=O)c2cc(Oc3cnc(C(=O)N4CCC4)cn3)cc(OC(C)C)c2)n1)OCC', 'clearance', '22.7 mL/min/kg');

* * *

protocol_text: AUC (0 to 24 hrs) in cynomolgus monkey at 3 mg/kg, po measured upto 24 hrs
Assay type: ADME, organism-based, Macaca fascicularis
Parameters: route oral, dose 3 mg/kg, time <=24
measurement_parameters: in vivo
measure_name: AUC(0-t)

INSERT INTO assay_data (query_smiles, measure_name, reported_value) VALUES
  ('CCOP(=O)(Cn1ccc(NC(=O)c2cc(Oc3cnc(C(=O)N4CCC4)cn3)cc(OC(C)C)c2)n1)OCC', 'AUC(0-t)', '0.57 µM·h');

* * *

target_or_test_system: Hexokinase-4 (Homo sapiens)
Sequence (P35557 whole entry): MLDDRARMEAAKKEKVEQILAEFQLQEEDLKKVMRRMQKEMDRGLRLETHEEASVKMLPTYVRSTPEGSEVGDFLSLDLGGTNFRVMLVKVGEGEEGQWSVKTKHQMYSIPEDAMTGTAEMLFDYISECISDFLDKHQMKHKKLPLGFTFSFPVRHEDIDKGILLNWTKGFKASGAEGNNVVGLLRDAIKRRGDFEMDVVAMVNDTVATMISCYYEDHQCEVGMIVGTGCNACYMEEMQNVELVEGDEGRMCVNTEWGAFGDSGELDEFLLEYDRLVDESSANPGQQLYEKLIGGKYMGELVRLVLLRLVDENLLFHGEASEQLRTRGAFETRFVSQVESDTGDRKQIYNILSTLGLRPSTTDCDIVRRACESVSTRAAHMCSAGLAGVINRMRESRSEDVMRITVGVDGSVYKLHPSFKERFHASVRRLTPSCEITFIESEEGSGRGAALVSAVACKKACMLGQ
protocol_text: Activation of recombinant human full length liver glucokinase expressed in Escherichia coli incubated for 10 mins in presence of 5 mM glucose by plate reader analysis
pEC50: −log10 of the molar value.
measure_name: pEC50

INSERT INTO results (query_smiles, target_or_test_system, reported_value) VALUES
  ('CCOP(=O)(Cc1csc(NC(=O)c2cc(Oc3ccc(S(C)(=O)=O)cc3)cc(O[C@@H](C)COC)c2)n1)OCC', 'Hexokinase-4 (Homo sapiens)', 7.19);

* * *

target_or_test_system: UniProtKB P35557
protocol_text: Displacement of fluorescent labeled derivative from recombinant human hepatic glucokinase incubated for 30 mins in presence of 12 mM glucose by fluorescent polarization assay
pIC50: −log10 of the molar value.
measure_name: pIC50

INSERT INTO measurements (query_smiles, measure_name, reported_value) VALUES
  ('CCOP(=O)(Cc1csc(NC(=O)c2cc(Oc3ccc(S(C)(=O)=O)cc3)cc(O[C@@H](C)COC)c2)n1)OCC', 'pIC50', 6.91);

* * *

protocol_text: Cmax in CD1 mouse at 5 mg/kg, po measured upto 24 hrs by LC-MS/MS analysis
Format: ADME, organism-based
Set-up: route oral, dose 5 mg/kg, time <=24
measurement_parameters: in vivo
measure_name: Cmax (µM)

INSERT INTO assay_data (query_smiles, measure_unit, reported_value) VALUES
  ('CCOP(=O)(Cn1ccc(NC(=O)c2cc(Oc3cnc(C(=O)N4CCC4)cn3)cc(OC(C)C)c2)n1)OCC', 'µM', 14.1);

* * *

protocol_text: Aqueous solubility of the compound at pH 6.5 using amorphous form of sample
Format: physicochemical
measurement_parameters: aqueous solution
measure_name: solubility (µg/mL)

INSERT INTO results (query_smiles, measure_unit, reported_value) VALUES
  ('CCOP(=O)(Cc1csc(NC(=O)c2cc(Oc3ccc(S(C)(=O)=O)cc3)cc(O[C@@H](C)COC)c2)n1)OCC', 'µg/mL', 16),
  ('CCOP(=O)(Cn1ccc(NC(=O)c2cc(Oc3ccc(S(C)(=O)=O)cc3)cc(OC(C)C)c2)n1)OCC', 'µg/mL', 1),
  ('COC[C@H](C)Oc1cc(Oc2ccc(S(C)(=O)=O)cc2)cc(C(=O)Nc2ccn(CP(C)(C)=O)n2)c1', 'µg/mL', 96),
  ('CCOP(=O)(Cn1ccc(NC(=O)c2cc(Oc3ccc(S(C)(=O)=O)cc3)cc(OC(CF)CF)c2)n1)OCC', 'µg/mL', 10);

* * *

protocol_text: Microsomal stability in human liver microsomes assessed as parent compound remaining at 0.5 uM measured after 10 mins in presence of NADPH
Assay type: ADME, Microsome
measurement_parameters: read-out: Stability
measure_name: remaining at 10 min, 0.5 µM (%)

INSERT INTO measurements (query_smiles, measure_name, reported_value) VALUES
  ('CCOP(=O)(Cn1ccc(NC(=O)c2cc(Oc3ccc(S(C)(=O)=O)cc3)cc(OC(C)C)c2)n1)OCC', 'remaining at 10 min, 0.5 µM', 88),
  ('CCOP(=O)(Cn1ccc(NC(=O)c2cc(Oc3ccc(S(C)(=O)=O)cc3)cc(O[C@@H](C)CO)c2)n1)OCC', 'remaining at 10 min, 0.5 µM', 90),
  ('CCOP(=O)(Cn1ccc(NC(=O)c2cc(Oc3ccc(S(C)(=O)=O)cc3)cc(O[C@@H](C)CF)c2)n1)OCC', 'remaining at 10 min, 0.5 µM', 78),
  ('CCOP(=O)(Cc1csc(NC(=O)c2cc(Oc3ccc(S(C)(=O)=O)cc3)cc(O[C@@H](C)COC)c2)n1)OCC', 'remaining at 10 min, 0.5 µM', 4);

* * *

target_or_test_system: Hexokinase-4 (Mus musculus, UniProt P52792)
Sequence (P52792 whole entry): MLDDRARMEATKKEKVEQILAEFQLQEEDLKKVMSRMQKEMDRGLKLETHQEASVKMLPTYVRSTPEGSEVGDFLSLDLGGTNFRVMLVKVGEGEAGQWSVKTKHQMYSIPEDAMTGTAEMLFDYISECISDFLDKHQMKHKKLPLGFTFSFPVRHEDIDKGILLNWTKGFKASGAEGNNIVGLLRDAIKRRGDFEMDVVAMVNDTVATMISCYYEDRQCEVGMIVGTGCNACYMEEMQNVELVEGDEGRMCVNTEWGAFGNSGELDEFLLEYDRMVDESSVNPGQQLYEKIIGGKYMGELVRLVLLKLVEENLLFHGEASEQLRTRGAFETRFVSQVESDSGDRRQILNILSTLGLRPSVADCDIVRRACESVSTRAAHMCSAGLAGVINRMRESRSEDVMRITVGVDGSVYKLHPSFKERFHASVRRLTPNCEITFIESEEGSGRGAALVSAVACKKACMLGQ
protocol_text: Activation of recombinant mouse full length liver glucokinase expressed in Escherichia coli incubated for 10 mins in presence of 12 mM glucose by plate reader analysis
measure_name: EC50 (nM)

INSERT INTO measurements (query_smiles, reported_value) VALUES
  ('CCOP(=O)(Cn1ccc(NC(=O)c2cc(Oc3cnc(C(=O)N4CCC4)cn3)cc(OC(C)C)c2)n1)OCC', 32),
  ('CCOP(=O)(Cc1csc(NC(=O)c2cc(Oc3ccc(S(C)(=O)=O)cc3)cc(O[C@@H](C)COC)c2)n1)OCC', 42);

* * *

protocol_text: Half life in cynomolgus monkey at 3 mg/kg, iv measured upto 24 hrs
Format: ADME, organism-based, Macaca fascicularis
measurement_parameters: in vivo
measure_name: half-life

INSERT INTO results (query_smiles, measure_name, reported_value) VALUES
  ('CCOP(=O)(Cn1ccc(NC(=O)c2cc(Oc3cnc(C(=O)N4CCC4)cn3)cc(OC(C)C)c2)n1)OCC', 'half-life', '1.9 h');

* * *

protocol_text: Oral bioavailability in CD1 mouse at 5 mg/kg measured upto 24 hrs by LC-MS/MS analysis
Assay type: ADME, organism-based
measurement_parameters: in vivo
measure_name: bioavailability

INSERT INTO results (query_smiles, measure_name, reported_value) VALUES
  ('CCOP(=O)(Cn1ccc(NC(=O)c2cc(Oc3cnc(C(=O)N4CCC4)cn3)cc(OC(C)C)c2)n1)OCC', 'bioavailability', '100%');

* * *

protocol_text: AUC (0 to 24 hrs) in cynomolgus monkey at 3 mg/kg, iv measured upto 24 hrs
Assay type: ADME, organism-based, Macaca fascicularis
Set-up: route intravenous, dose 3 mg/kg, time <=24
measurement_parameters: in vivo
measure_name: AUC(0-t) (µM·h)

INSERT INTO assay_data (query_smiles, measure_name, measure_unit, reported_value) VALUES
  ('CCOP(=O)(Cn1ccc(NC(=O)c2cc(Oc3cnc(C(=O)N4CCC4)cn3)cc(OC(C)C)c2)n1)OCC', 'AUC(0-t)', 'µM·h', 3.8);

* * *

protocol_text: Volume of distribution at steady state in Sprague-Dawley rat at 2.5 mg/kg, iv measured upto 24 hrs by LC-MS/MS analysis
Type: ADME, organism-based
measurement_parameters: in vivo, read-out: Vdss
measure_name: Vd (L/kg)

INSERT INTO assay_data (query_smiles, reported_value) VALUES
  ('CCOP(=O)(Cn1ccc(NC(=O)c2cc(Oc3cnc(C(=O)N4CCC4)cn3)cc(OC(C)C)c2)n1)OCC', 0.3);

* * *

protocol_text: Oral bioavailability in cynomolgus monkey at 3 mg/kg measured upto 24 hrs
Assay type: ADME, organism-based, Macaca fascicularis
measurement_parameters: in vivo
measure_name: bioavailability (%)

INSERT INTO measurements (query_smiles, measure_name, measure_unit, reported_value) VALUES
  ('CCOP(=O)(Cn1ccc(NC(=O)c2cc(Oc3cnc(C(=O)N4CCC4)cn3)cc(OC(C)C)c2)n1)OCC', 'bioavailability', '%', 15);

* * *

protocol_text: AUC (0 to 24 hrs) in Sprague-Dawley rat at 2.5 mg/kg, iv measured upto 24 hrs by LC-MS/MS analysis
Assay type: ADME, organism-based
Parameters: route intravenous, dose 2.5 mg/kg, time <=24
measurement_parameters: in vivo
measure_name: AUC(0-t) (µM·h)

INSERT INTO measurements (query_smiles, measure_unit, reported_value) VALUES
  ('CCOP(=O)(Cn1ccc(NC(=O)c2cc(Oc3cnc(C(=O)N4CCC4)cn3)cc(OC(C)C)c2)n1)OCC', 'µM·h', 16.6);
